Please go through the items and note down their TGI.
Test system: HCC-2998 colon
Procedure Text: NCI tumour cell line growth inhibition, 48 h

Before answering, review these 5 worked examples.
INSERT INTO measurements (compound, observed_measurement) VALUES
  ('CCOC(=O)CCC(NC(=O)c1ccc(Nc2nc3ccccc3nc2-c2cccs2)cc1)C(=O)OCC (configuration not stated)', '> 100 µM'),
  ('Oc1ccc(Cn2c(-c3ccc(O)c(O)c3)nc3ccccc32)cc1O', '27.3 µM'),
  ('NS(=O)(=O)c1ccc(N2N=C3c4ccccc4CC3C2c2ccc(Cl)cc2)cc1 (configuration not stated)', '27.7 µM'),
  ('COc1cc([N+](=O)[O-])ccc1NC1=CC(=O)CCC1', '> 100 µM'),
  ('COC(=O)C1=C(CO)C2C=CC1C2 (configuration not stated)', '> 100 µM');

Items follow; give TGI for each.
1. CN(/N=C/C=N/N(C)C1=NCCCCN1)C1=NCCCCN1
2. O=C(OCC1OC(c2nn[nH]n2)C(OC(=O)c2ccccc2)C1OC(=O)c1ccccc1)c1ccccc1 (configuration not stated)
3. Cc1ccc(C)c(NC(=O)CC/C(=N\NC(=O)C(N)=O)C(C)C(=O)c2ccc(O)cc2)c1 (configuration not stated)
4. CN(C)CCCc1c[nH]c2ccccc12
5. CCOC(=O)C1=c2[nH]c3cccc4cccc(c43)n2C=C(C(C)=O)C1CC(C)=O (configuration not stated)
6. O=[n+]1c2ccccc2n([O-])c2cc(Br)ccc21

Result:
["> 100 µM", "> 100 µM", "> 100 µM", "> 100 µM", "> 100 µM", "39.9 µM"]

Items follow; give TGI for each.
1. COc1ccc(/C=C2\CCC(C)(CN(C)C)C2=O)cc1 (configuration not stated)
2. C=C1c2nc3ccccc3n2C=C(c2ccccc2)N1c1ccccc1
3. NC1=NNC2(C(N)=N1)c1ccccc1-c1ccccc12
4. COC1=CC(c2ccc[nH]2)=N/C1=C\c1ccc[nH]1
5. NCCC(O)(P(=O)(O)O)P(=O)(O)O
6. O=C1OC(O)C(Oc2ccc(Cl)cc2)=C1Cl (configuration not stated)

Result:
["> 100 µM", "28.8 µM", "> 10 µM", "9.54 µM", "> 100 µM", "> 100 µM"]

* * *

Please go through the items and note down their TGI.
System: OVCAR-4 ovarian
Procedure Text: NCI tumour cell line growth inhibition, 48 h

INSERT INTO measurements (molecule, property_measured, observed_measurement) VALUES
  ('O=C(CCCl)NNC1=NCCN1', 'TGI', '> 100 µM'),
  ('COP1(=O)Oc2ccccc2C(=O)C(C(F)(F)F)(C(F)(F)F)O1 (stereo not given)', 'TGI', '> 100 µM'),
  ('COC(=O)CCn1cnc2c(SC)ncnc21', 'TGI', '> 100 µM'),
  ('O=c1ccn2n1CCCCC2', 'TGI', '> 100 µM'),
  ('Cc1nc(NC(=O)CCCN2C(=O)c3cccc4cccc(c34)C2=O)sc1C(=O)Nc1cc(C(=O)NCCCN(C)C)n(C)c1', 'TGI', '> 100 µM'),
  ('CN(C)CC1(C)CC/C(=C\c2ccccc2)C1=O (stereo not given)', 'TGI', '> 100 µM'),
  ('CC(=O)O[C@H]1C(=O)[C@@]2(C)C(C(OC(=O)c3ccccc3)[C@]3(O)CC(OC(=O)C(O)C(NC(=O)c4ccc(C)cc4)c4ccccc4)C(C)=C1C3(C)C)[C@]1(OC(C)=O)CO[C@@H]1C[C@@H]2O (stereo not given in full)', 'TGI', '> 25 µM'),
  ('O=[N+]([O-])c1cc(Cl)cc2cc(Cl)cnc12', 'TGI', '> 100 µM'),
  ('NC1=NNC2(C(N)=N1)c1ccccc1-c1ccccc12', 'TGI', '> 10 µM');

Proceed to the following item.
Problem: Give measured TGI for COc1ccc(-c2ccc(C3CC(c4ccc(Cl)cc4)=NN3)o2)c([N+](=O)[O-])c1 (stereo not given) (OVCAR-4 ovarian).
Result: > 100 µM

* * *

Tested on: MALME-3M melanoma
Procedure Text: NCI tumour cell line growth inhibition, 48 h
Property Measured: TGI

Items follow; give TGI for each.
1. N#CCCN(c1ccc(-c2nnc(NC(=O)CNNC(=O)CC(=O)Nc3ccccc3)s2)cc1)S(=O)(=O)c1ccccc1
2. N#Cc1cc([N+](=O)[O-])ccc1NC(=O)C(=O)C(C(=O)/C=C/c1ccccc1)C1OC(=O)c2ccccc21 (stereo not drawn)
3. C1=Cc2nc1c(-c1ccncc1)c1ccc([n-]1)c(-c1ccncc1)c1nc(c(-c3ccncc3)c3ccc([n-]3)c2-c2ccncc2)C=C1.[Zn+2]

Result:
1. > 100 µM
2. > 100 µM
3. > 100 µM

* * *

Tested on: T-47D breast
Procedure Text: NCI tumour cell line growth inhibition, 48 h
Property Measured: TGI

Before answering, review these 4 worked examples.
INSERT INTO assay_data (compound, observed_measurement) VALUES
  ('COc1ccc2c(c1)N=C1CSC(c3cc([N+](=O)[O-])ccc3Cl)N1C2 (stereo not given)', '> 100 µM'),
  ('CC1CCC2C(C(=O)O[C@H]3C4CCO[C@@H](OC5OC(CO)C(O)C(O)C5O)C4[C@@]4(CO)O[C@@H]34)=CO[C@@H](OC3OC(CO)C(O)C(O)C3O)C12 (stereo not given in full)', '> 10 µM'),
  ('NC1=NNC2(C(N)=N1)c1ccccc1-c1ccccc12', '> 10 µM'),
  ('CC(CO)C1=CC(C#CCOCc2ccccc2)N(C(=O)Oc2ccccc2)c2ccccc21 (stereo not given)', '> 100 µM');

Problem: Output measured TGI for this item: NCc1nnn(Cc2ccccc2)c1N
Result: > 100 µM

* * *

Tested on: HS 578T breast
Procedure Text: NCI tumour cell line growth inhibition, 48 h
Property Measured: TGI (µM)
One number for each entry, in µM.

Before answering, review these 4 worked examples.
INSERT INTO assay_data (compound, subject_of_test, observed_measurement) VALUES
  ('CCn1cnc2c(Nc3cccc(Cl)c3)nc(N[C@@H]3CCCC[C@@H]3N)nc21', 'HS 578T breast', 7.99),
  ('CC(C)NC(=O)OCc1c(COC(=O)NC(C)C)n(C)c2c1ccc1ccccc12', 'HS 578T breast', 7.12),
  ('COC(=O)CCC/C=C\C[C@H]1C=CC(=O)/C1=C/C[C@@H](O)C/C=C\CC(F)(F)F', 'HS 578T breast', 70.3),
  ('CC(C)n1c2c([n+](C)c1/C=C/c1ccccc1)C(=O)c1ccccc1C2=O', 'HS 578T breast', 7.8);

Items follow; give TGI for each.
1. COc1ccc2c(c1)CCC1C2CC[C@]2(C)/C(=N/OC(=O)Cc3ccccc3)CCC12 (some centres undefined)
2. O=c1[nH]nc(Cc2ccc(Cl)cc2)n1/N=C\CC/C=N\n1c(Cc2ccc(Cl)cc2)n[nH]c1=O
3. NCCNC(=S)S
4. N#CC1=C(N)OC(c2ccc([N+](=O)[O-])cc2)C1(C#N)C#N (centres undefined)
5. CC(CO)C1=CC(C#CCOCc2ccccc2)N(C(=O)Oc2ccccc2)c2ccccc21 (centres undefined)

Result:
[70, 36.5, 43, 64.9, 53.5]

Problem: Output measured TGI for this item: ClC1=C(Cc2ccccc2)Cc2ccc3c(c21)CCC3
Result: 84.3

* * *

System: XF 498 CNS
Procedure Text: NCI tumour cell line growth inhibition, 48 h
Please go through the items and note down their TGI.
Answers are plain numbers, in µM.

INSERT INTO assay_data (compound, subject_of_test, property_measured, observed_measurement) VALUES
  ('CC(C)OP(=O)(OC(C)C)C(=Nc1ccccc1)NNc1ccc([N+](=O)[O-])cc1', 'XF 498 CNS', 'TGI', 61);

Items follow; give TGI for each.
1. CC1C=CC(=O)C(n2cc(F)c(=O)[nH]c2=O)O1 (stereo unspecified)
2. CC1=C(C(=O)Nc2ccc(Cl)c(Cl)c2)C(c2ccco2)C(C(=O)Nc2ccc(Cl)c(Cl)c2)=C(C)N1

Result:
[28.7, 7.94]

* * *

Test system: HCT-15 colon
Procedure Text: NCI tumour cell line growth inhibition, 48 h
Property Measured: TGI

INSERT INTO results (molecule, observed_measurement) VALUES
  ('CCOC(=O)NC(NC(C)CC)(C(F)(F)F)C(F)(F)F (stereo not drawn)', '> 100000 nM'),
  ('CN(C)c1nc(-c2ccccc2)c(C(=O)c2c[nH]c3ccccc23)s1', '> 100000 nM'),
  ('CC(NC(=O)OC(C)(C)C)C(=O)C(N)=O (stereo not drawn)', '> 100000 nM'),
  ('CCOP(=O)(OCC)/C(C#N)=C/c1cccn1CC(C)C', '> 100000 nM');

Items follow; give TGI for each.
1. COc1ccc2nc3ccccc3c(NCCCCCCN(C)CCCl)c2c1
2. C=C1C(=O)O[C@H]2[C@H]1CC/C(COC(=O)NCc1c[nH]c3ccc(Cl)cc13)=C\CC[C@@]1(C)O[C@@H]21
3. CCC(=C/[C@H](C)C/C=C/C(C)=C/[C@@H](C)C(=O)[C@@H](C)[C@H](O)[C@@H](C)CC)/C=C/[C@H]1OC(=O)C=C[C@H]1C
4. Cn1c(-c2ccc(/C=N\N3CCN(/N=C/c4ccc(-c5c[n+]6ccsc6n5C)cc4)CC3)cc2)c[n+]2ccsc12

Result:
2010 nM
1950 nM
1170 nM
> 100000 nM
